Every entry's value here was drawn from patent US10760110B2.

- Test system: K. pneumoniae NVT1001 and its GyrA/ParC and ΔramR mutants
- Protocol description: Etest MIC of quinolones, GyrA/ParC mutations and AcrAB-TolC overexpression (ΔramR) (Table 10)
- Assay type: cell-based
- Setup conditions: Klebsiella pneumoniae, S83Y mutant (GyrA S83Y)
- Description: DNA fragments of the entire gyrA and parC sequences along with their flanking regions were amplified from K. pneumoniae strain NVT1001 using PCR with specific primer pairs and then cloned into the plasmid pUT-KB. […] The MICs of antibiotics were determined using the Etest (Biodisk AB, Sweden) according to the manufacturer's instructions. […]
Readout kind: MIC (µg/mL)

Compound	Test system	Inequality sign	Assay value
CC1COc2c(N3CCN(C)CC3)c(F)cc3c(=O)c(C(=O)O)cn1c23 (centres unmarked)	K. pneumoniae NVT1001 and its GyrA/ParC and ΔramR mutants	=	2
CCn1cc(C(=O)O)c(=O)c2cc(F)c(N3CCNCC3)cc21	K. pneumoniae NVT1001 and its GyrA/ParC and ΔramR mutants	=	2
C[C@H]1COc2c(N3CCN(C)CC3)c(F)cc3c(=O)c(C(=O)O)cn1c23	K. pneumoniae NVT1001 and its GyrA/ParC and ΔramR mutants	=	0.5
CCn1cc(C(=O)O)c(=O)c2ccc(C)nc21	K. pneumoniae NVT1001 and its GyrA/ParC and ΔramR mutants	>	256
COc1c(N2C[C@@H]3CCCN[C@@H]3C2)c(F)cc2c(=O)c(C(=O)O)cn(C3CC3)c12	K. pneumoniae NVT1001 and its GyrA/ParC and ΔramR mutants	=	0.5
